experimental.target: Atypical chemokine receptor 3 (Homo sapiens, UniProt P25106)
Sequence (P25106 whole entry): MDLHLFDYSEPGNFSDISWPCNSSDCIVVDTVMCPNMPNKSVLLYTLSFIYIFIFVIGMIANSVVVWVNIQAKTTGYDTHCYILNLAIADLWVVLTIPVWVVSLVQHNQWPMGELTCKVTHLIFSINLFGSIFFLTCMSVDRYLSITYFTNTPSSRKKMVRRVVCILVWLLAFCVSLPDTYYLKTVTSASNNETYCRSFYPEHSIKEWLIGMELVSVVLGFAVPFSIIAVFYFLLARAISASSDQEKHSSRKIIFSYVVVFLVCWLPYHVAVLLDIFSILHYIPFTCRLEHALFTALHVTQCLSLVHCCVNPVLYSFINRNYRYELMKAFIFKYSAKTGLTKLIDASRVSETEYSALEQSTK
test.details: Inhibition of [125I]SDF-1alpha binding to CXCR7 (unknown origin) expressed in CHO cell membranes incubated for 1 hr by radioligand displacement assay
pIC50: −log10 of the molar value.
parameter: pIC50

I'd like to know its pIC50. The compound in question is C[C@@H]1C(=O)N[C@H](Cc2ccc(O)cc2)C(=O)N[C@@H](CCCNC(=N)N)C(=O)N[C@@H](CCCNC(=N)N)C(=O)N[C@@H](Cc2ccc3ccccc3c2)C(=O)N1C
< 4.52

I'd like to know its pIC50. The compound in question is CN1C(=O)[C@@H](Cc2ccc(O)cc2)NC(=O)[C@@H]2CCCN2C(=O)[C@H](Cc2ccc3ccccc3c2)NC(=O)[C@H](CCCNC(=N)N)NC(=O)[C@H]1CCCNC(=N)N
4.89

I'd like to know its pIC50. The compound in question is C[C@@H]1NC(=O)[C@H](CCCNC(=N)N)N(C)C(=O)[C@H](CCCNC(=N)N)NC(=O)[C@@H](Cc2ccc(O)cc2)NC(=O)[C@@H]2CCCN2C1=O
< 4.52
